FYI, the data here is from the supplement of paper PMC9112550.

Tested on: Escherichia coli TOP10
Assay: shrunken log2 fold change of peptide-encoding DNA abundance (4.5 h post-induction vs induction); higher = less antimicrobial activity (less host growth inhibition)
Details: time post-induction: 4.5 h; library: site-saturation at positions 5, 18, 19, 20
readout name: shrunken log2 fold change

[
  {
    "record sequence": "RRIRPRPPRLPRPRPRPHWGPRP",
    "shrunken log2 fold change": 0.0167
  },
  {
    "record sequence": "RRIRLRPPRLPRPRPRPLASPRP",
    "shrunken log2 fold change": 0.177
  },
  {
    "record sequence": "RRIRDRPPRLPRPRPRPWYLPRP",
    "shrunken log2 fold change": -0.11
  },
  {
    "record sequence": "RRIRWRPPRLPRPRPRPYTDPRP",
    "shrunken log2 fold change": 0.102
  },
  {
    "record sequence": "RRIRSRPPRLPRPRPRPTANPRP",
    "shrunken log2 fold change": 0.293
  },
  {
    "record sequence": "RRIRHRPPRLPRPRPRPVYHPRP",
    "shrunken log2 fold change": -0.282
  },
  {
    "record sequence": "RRIRVRPPRLPRPRPRPQVDPRP",
    "shrunken log2 fold change": 0.00887
  },
  {
    "record sequence": "RRIRARPPRLPRPRPRPAKIPRP",
    "shrunken log2 fold change": 0.321
  },
  {
    "record sequence": "RRIRFRPPRLPRPRPRPWRNPRP",
    "shrunken log2 fold change": -0.133
  },
  {
    "record sequence": "RRIRERPPRLPRPRPRPSDMPRP",
    "shrunken log2 fold change": -0.0552
  }
]

Switching to the query record.
Challenge: Report shrunken log2 fold change under test system Escherichia coli TOP10 for RRIRHRPPRLPRPRPRPPPAPRP .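 Also: peptides expressed intracellularly from a pBAD plasmid library in pooled LB shake-flask culture, induced with 0.3% L-arabinose, DNA abundance read by NGS, three biological replicates, DESeq2 with apeglm shrinkage.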
Response given: 1.07
